Listing of recorded MIC by entry.
test system: Staph. aureus Oxford; test: MIC against human bacteria in vitro; assay type: cell-based; conditions: Staphylococcus aureus; Staph. aureus Oxford; 5% chocolated horse blood agar, 18 hours; read-out: MIC
observable: MIC (µg/mL)

>  <compound>
C/C(=C\c1ncc(-c2cccc([N+](=O)[O-])c2)o1)C[C@@H]1OC[C@H](C[C@@H]2O[C@H]2[C@@H](C)[C@H](C)O)[C@@H](O)[C@H]1O

>  <observable>
MIC

>  <quantitative-result>
8

$$$$
>  <compound>
C/C(=C\c1ncc(-c2ccc([N+](=O)[O-])cc2)o1)C[C@@H]1OC[C@H](C[C@@H]2O[C@H]2[C@@H](C)[C@H](C)O)[C@@H](O)[C@H]1O

>  <observable>
MIC

>  <quantitative-result>
0.2

$$$$
>  <compound>
C/C(=C\c1ncc(-c2ccc(S(=O)(=O)N(C)C)cc2)o1)C[C@@H]1OC[C@H](C[C@@H]2O[C@H]2[C@@H](C)[C@H](C)O)[C@@H](O)[C@H]1O

>  <observable>
MIC

>  <quantitative-result>
4

$$$$
